Test system: human oral keratinocytes (HOK)
Assay Name: CCK-8 cell viability: alleviation of proliferative toxicity of anti-tumor agents on HOK (Table 8-2)
Assay type: cell-based
Measurement Conditions: Sorafenib (5 μM), NO-NSAID 100 μM
Protocol: Experiments were conducted using various epithelial cells: Examples 47-51 used human immortalized keratinocytes (HaCaT) with corresponding results in Table 8-1; Examples 52-56 used human oral keratinocytes (HOK) with results in Table 8-2; Examples 57-61 used gastric epithelial cells (GES-1) with results in Table 8-3; Examples 62-66 used human intestinal epithelial cells (FHs 74 Int) with results in Table 8-4. […]
Measure Name: Response rate % (average) (%)
Use % as the unit, but write only the number.

Inquiry: Name the recorded Response rate % (average) for COc1ccc2cc(C(C)C(=O)OCCCCO[N+](=O)[O-])ccc2c1 (centres unmarked) .
Reply text: 28

Inquiry: Name the recorded Response rate % (average) for CC(C(=O)OCCCO[N+](=O)[O-])c1ccc(-c2ccccc2)c(F)c1 (centres unmarked) .
Reply text: 22

Inquiry: Name the recorded Response rate % (average) for CC(C)Cc1ccc(C(C)C(=O)OCO/N=[N+](\[O-])N(C)C)cc1 (centres unmarked) .
Reply text: 29

Inquiry: Name the recorded Response rate % (average) for CC(=O)Oc1ccccc1C(=O)OCOC(=O)CCCCCO[N+](=O)[O-] .
Reply text: 30

Inquiry: Name the recorded Response rate % (average) for CC(=O)Oc1ccccc1C(=O)Oc1cccc(CO[N+](=O)[O-])c1 .
Reply text: 31

====

Kindly state NO-NSAID response rate % (average) for each of the entries shown.
Tested on: HUVEC cells
Assay Name: CCK-8 cell viability: alleviation of proliferative toxicity of anti-tumor agents on HUVEC cells (Tables 7-1, 7-2)
Assay type: cell-based
Measurement Conditions: Regorafenib (5 μM), NO-NSAID 100 μM
Use % as the unit, but write only the number.

Inquiry: Name the recorded NO-NSAID response rate % (average) for CC(=O)Oc1ccccc1C(=O)Oc1cccc(CO[N+](=O)[O-])c1 .
Reply text: 50

Inquiry: Name the recorded NO-NSAID response rate % (average) for CC(C)Cc1ccc(C(C)C(=O)OCO/N=[N+](\[O-])N(C)C)cc1 (centres unmarked) .
Reply text: 74

Inquiry: Name the recorded NO-NSAID response rate % (average) for CC(=O)Oc1ccccc1C(=O)OCOC(=O)CCCCCO[N+](=O)[O-] .
Reply text: 55

Inquiry: Name the recorded NO-NSAID response rate % (average) for CC(C(=O)OCCCO[N+](=O)[O-])c1ccc(-c2ccccc2)c(F)c1 (centres unmarked) .
Reply text: 64

Inquiry: Name the recorded NO-NSAID response rate % (average) for COc1ccc2cc(C(C)C(=O)OCCCCO[N+](=O)[O-])ccc2c1 (centres unmarked) .
Reply text: 83

====

System: human oral keratinocytes (HOK)
Assay Name: CCK-8 cell viability: alleviation of proliferative toxicity of anti-tumor agents on HOK (Table 8-2)
Assay type: cell-based
Measurement Conditions: Olmutinib (10 μM), NO-NSAID 100 μM
Measure Name: Response rate % (average)
Report the figure along with its unit, number first.

Inquiry: Name the recorded Response rate % (average) for COc1ccc2cc(C(C)C(=O)OCCCCO[N+](=O)[O-])ccc2c1 (centres unmarked) .
Reply text: 38%

Inquiry: Name the recorded Response rate % (average) for CC(=O)Oc1ccccc1C(=O)Oc1cccc(CO[N+](=O)[O-])c1 .
Reply text: 32%

Inquiry: Name the recorded Response rate % (average) for CC(C)Cc1ccc(C(C)C(=O)OCO/N=[N+](\[O-])N(C)C)cc1 (centres unmarked) .
Reply text: 24%

Inquiry: Name the recorded Response rate % (average) for CC(C(=O)OCCCO[N+](=O)[O-])c1ccc(-c2ccccc2)c(F)c1 (centres unmarked) .
Reply text: 40%

Inquiry: Name the recorded Response rate % (average) for CC(=O)Oc1ccccc1C(=O)OCOC(=O)CCCCCO[N+](=O)[O-] .
Reply text: 35%

====

Kindly state Response rate % (average) for each of the entries shown.
Test system: gastric epithelial cells (GES-1)
Assay Name: CCK-8 cell viability: alleviation of proliferative toxicity of anti-tumor agents on GES-1 (Table 8-3)
Type: cell-based, human
Measurement Conditions: Sunitinib (5 μM), NO-NSAID 100 μM
Use % as the unit, but write only the number.

Inquiry: Name the recorded Response rate % (average) for CC(=O)Oc1ccccc1C(=O)OCOC(=O)CCCCCO[N+](=O)[O-] .
Reply text: 4

Inquiry: Name the recorded Response rate % (average) for CC(=O)Oc1ccccc1C(=O)Oc1cccc(CO[N+](=O)[O-])c1 .
Reply text: 18

Inquiry: Name the recorded Response rate % (average) for COc1ccc2cc(C(C)C(=O)OCCCCO[N+](=O)[O-])ccc2c1 (centres unmarked) .
Reply text: 21

Inquiry: Name the recorded Response rate % (average) for CC(C(=O)OCCCO[N+](=O)[O-])c1ccc(-c2ccccc2)c(F)c1 (centres unmarked) .
Reply text: −2

Inquiry: Name the recorded Response rate % (average) for CC(C)Cc1ccc(C(C)C(=O)OCO/N=[N+](\[O-])N(C)C)cc1 (centres unmarked) .
Reply text: 0

====

Test system: HUVEC cells
Assay Name: CCK-8 cell viability: alleviation of proliferative toxicity of anti-tumor agents on HUVEC cells (Tables 7-1, 7-2)
Format: cell-based
Measurement Conditions: Homo sapiens, 24 h, Apatinib (10 μM), NO-NSAID 100 μM, percentage increase in viable cells vs anti-tumor agent alone, read-out: Response rate % (average)
Description: The cultured HUVEC cells were digested the suspended, counted, and seed into a 96-well plate with 5,000-10,000 cells per well. […] After culturing for 24-48 hours, the Cell Counting Kit-8 (CCK-8) detection kit (C0037, Shanghai Beyotime Biotechnology Co., Ltd., Beyotime Biotechnology) was used to determine the cell viability. […] The results were statistically analyzed and plotted using GraphPad Prism 6.0 software and t test.
Measure Name: activation at 100 µM (%)
Use % as the unit, but write only the number.

Inquiry: Name the recorded activation at 100 µM for CC(C(=O)OCC(CO[N+](=O)[O-])O[N+](=O)[O-])c1ccc(-c2ccccc2)c(F)c1 (stereo not shown) [Compound A10] .
Reply text: 58

Inquiry: Name the recorded activation at 100 µM for COc1ccc2cc(C(C)C(=O)OCC(CO[N+](=O)O)C[N+](=O)[O-])ccc2c1 (stereo not shown) [Compound A9] .
Reply text: 62

Inquiry: Name the recorded activation at 100 µM for CC(=O)Oc1ccccc1C(=O)OCc1no[n+]([O-])c1C(N)=O [Compound A6] .
Reply text: 41

Inquiry: Name the recorded activation at 100 µM for CC(C)Cc1ccc(C(C)C(=O)OCO/N=[N+](\[O-])N(C)C)cc1 (stereo not shown) [Compound A4] .
Reply text: 52

====

Tested on: HUVEC cells
Assay Name: CCK-8 cell viability: alleviation of proliferative toxicity of anti-tumor agents on HUVEC cells (Tables 7-1, 7-2)
Type: cell-based
Measurement Conditions: Olmutinib (10 μM), NO-NSAID 1 μM
Measure Name: NO-NSAID response rate % (average)
Report the figure along with its unit, number first.

Inquiry: Name the recorded NO-NSAID response rate % (average) for CC(=O)Oc1ccccc1C(=O)OCOC(=O)CCCCCO[N+](=O)[O-] .
Reply text: 35%

Inquiry: Name the recorded NO-NSAID response rate % (average) for CC(C(=O)OCCCO[N+](=O)[O-])c1ccc(-c2ccccc2)c(F)c1 (centres unmarked) .
Reply text: 20%

Inquiry: Name the recorded NO-NSAID response rate % (average) for CC(=O)Oc1ccccc1C(=O)Oc1cccc(CO[N+](=O)[O-])c1 .
Reply text: 24%

Inquiry: Name the recorded NO-NSAID response rate % (average) for COc1ccc2cc(C(C)C(=O)OCCCCO[N+](=O)[O-])ccc2c1 (centres unmarked) .
Reply text: 34%

Inquiry: Name the recorded NO-NSAID response rate % (average) for CC(C)Cc1ccc(C(C)C(=O)OCO/N=[N+](\[O-])N(C)C)cc1 (centres unmarked) .
Reply text: 38%

====

Kindly state activation at 100 µM for each of the entries shown.
System: HUVEC cells
Assay Name: CCK-8 cell viability: alleviation of proliferative toxicity of anti-tumor agents on HUVEC cells (Tables 7-1, 7-2)
Type: cell-based
Measurement Conditions: Homo sapiens, 24 h, Afatinib (10 μM), NO-NSAID 100 μM, percentage increase in viable cells vs anti-tumor agent alone, read-out: Response rate % (average)
Description: The cultured HUVEC cells were digested the suspended, counted, and seed into a 96-well plate with 5,000-10,000 cells per well. […] After culturing for 24-48 hours, the Cell Counting Kit-8 (CCK-8) detection kit (C0037, Shanghai Beyotime Biotechnology Co., Ltd., Beyotime Biotechnology) was used to determine the cell viability. […] The results were statistically analyzed and plotted using GraphPad Prism 6.0 software and t test.
Use % as the unit, but write only the number.

Inquiry: Lookup: activation at 100 µM / HUVEC cells / CC(=O)Oc1ccccc1C(=O)OCc1no[n+]([O-])c1C(N)=O [Compound A6]
Reply text: 45

Inquiry: Lookup: activation at 100 µM / HUVEC cells / CC(C(=O)OCCCO[N+](=O)[O-])c1ccc(-c2ccccc2)c(F)c1 (centres unmarked) [Compound A1]
Reply text: 50

Inquiry: Lookup: activation at 100 µM / HUVEC cells / CC(=O)Oc1ccccc1C(=O)Oc1cccc(CO[N+](=O)[O-])c1 [Compound A2]
Reply text: 46

Inquiry: Lookup: activation at 100 µM / HUVEC cells / CC(=O)Oc1ccccc1C(=O)OCOC(=O)CCCCCO[N+](=O)[O-] [Compound A3]
Reply text: 32

Inquiry: Lookup: activation at 100 µM / HUVEC cells / COc1ccc2cc(C(C)C(=O)OCC(CO[N+](=O)O)C[N+](=O)[O-])ccc2c1 (centres unmarked) [Compound A9]
Reply text: 32

Inquiry: Lookup: activation at 100 µM / HUVEC cells / COc1ccc2cc(C(C)C(=O)OCCCCO[N+](=O)[O-])ccc2c1 (centres unmarked) [Compound A5]
Reply text: 69

Inquiry: Lookup: activation at 100 µM / HUVEC cells / CC(C)Cc1ccc(C(C)C(=O)OCO/N=[N+](\[O-])N(C)C)cc1 (centres unmarked) [Compound A4]
Reply text: 70

Inquiry: Lookup: activation at 100 µM / HUVEC cells / CC(C(=O)OCC(CO[N+](=O)[O-])O[N+](=O)[O-])c1ccc(-c2ccccc2)c(F)c1 (centres unmarked) [Compound A10]
Reply text: 56
